- Tested on: HDQ-P1
- TEST SUMMARY: normalised viability (% of control), CellTiter-Blue; higher = more viable cells (about 100 = DMSO control)
- PARTICULARS: 100 nM; incubation time: 72 h
QUANTITY: normalised viability (%)
Value expressed in %; do not type the unit.

Example cases with answers are listed next.
1) NCC(=O)CCC(=O)O = 110
2) C[C@@H](Oc1cc(-c2cnn(C3CCNCC3)c2)cnc1N)c1c(Cl)ccc(F)c1Cl = 88.6
3) O=C1CCC(N2C(=O)c3ccccc3C2=O)C(=O)N1 (configuration not stated) [Thalidomide] = 103
4) C#Cc1cccc(Nc2ncnc3cc(OCCOC)c(OCCOC)cc23)c1 = 85
5) CCC1=C[C@@H]2CN(C1)Cc1c([nH]c3ccccc13)[C@@](C(=O)OC)(c1cc3c(cc1OC)N(C)[C@H]1[C@@](O)(C(=O)OC)[C@H](OC(C)=O)[C@]4(CC)C=CCN5CC[C@]31[C@@H]54)C2 = 65

stdin: Give its normalised viability value. Item: CN[C@@H]1C[C@H]2O[C@@](C)([C@@H]1OC)n1c3ccccc3c3c4c(c5c6ccccc6n2c5c31)C(=O)N[C@H]4O
stdout: 39.6

stdin: Param item: CCC1(c2ccc(N)cc2)CCC(=O)NC1=O (configuration not stated) [Aminoglutethimide]
stdout: 103

----------
- System: HDQ-P1
- PARTICULARS: 72 h
QUANTITY: EC50, CellTiter-Blue viability
Could you write the number and then its unit?

Solved entries (count: 3):
1) CN[C@@H]1C[C@H]2O[C@@](C)([C@@H]1OC)n1c3ccccc3c3c4c(c5c6ccccc6n2c5c31)C(=O)N[C@H]4O = 59.7 nM
2) CO[C@H]1/C=C\C=C(/C)C(=O)NC2=CC(=O)C(NCCN(C)C)=C(C[C@@H](C)C[C@H](OC)[C@H](O)[C@@H](C)/C=C(\C)[C@@H]1OC(N)=O)C2=O = 22.6 nM
3) NC(=O)Nc1cc(-c2cccc(F)c2)sc1C(=O)N[C@H]1CCCNC1 = 508 nM

stdin: Report EC50, CellTiter-Blue viability for C[C@@H](Oc1cc(-c2cnn(C3CCNCC3)c2)cnc1N)c1c(Cl)ccc(F)c1Cl tested on HDQ-P1.
stdout: 6970 nM

stdin: Request: Cc1ccc(C(=O)N(CCCN)[C@@H](c2oc3cc(Cl)ccc3c(=O)c2Cc2ccccc2)C(C)C)cc1
stdout: 2.34 nM

----------
- System: CAL-85-1
- TEST SUMMARY: normalised response (% of control), CellTox Green; higher = less cell death (100 = DMSO, 0 = benzethonium chloride kill control)
- PARTICULARS: incubation time: 72 h
QUANTITY: normalised response (%)
Answer with a number only, understood to be in %.

For orientation, consider the following solved cases.
1) N#CCNC(=O)c1ccc(-c2ccnc(Nc3ccc(N4CCOCC4)cc3)n2)cc1 [Momelotinib] (100 nM) = 102
2) COc1cc2nccc(Oc3ccc(NC(=O)C4(C(=O)Nc5ccc(F)cc5)CC4)cc3)c2cc1OC [Cabozantinib] (1000 nM) = 104
3) CCCCCCCCCCCCCCCCCCOP(=O)([O-])OC1CC[N+](C)(C)CC1 [Perifosine] (250 nM) = 107
4) N#CCNC(=O)c1ccc(-c2ccnc(Nc3ccc(N4CCOCC4)cc3)n2)cc1 [Momelotinib] (10000 nM) = 54.6

stdin: Can you share its normalised response? I mean this molecule: CC1(C)NC(=O)N(c2ccc([N+](=O)[O-])c(C(F)(F)F)c2)C1=O [Nilutamide] (10000 nM)
stdout: 83.5

stdin: Another molecule to check: C[C@]12CC[C@@H]3c4ccc(O)cc4C[C@@H](CCCCCCCCC[S+]([O-])CCCC(F)(F)C(F)(F)F)[C@H]3[C@@H]1CC[C@@H]2O (some centres undefined) [Fulvestrant] (10 nM)
stdout: 102

stdin: Try C#Cc1cccc(Nc2ncnc3cc(OCCOC)c(OCCOC)cc23)c1 [Erlotinib] (100 nM) next.
stdout: 86.2

stdin: Next molecule: Cn1c(CCCC(=O)O)nc2cc(N(CCCl)CCCl)ccc21 [Bendamustine] (10000 nM)
stdout: 84.3

stdin: And the next one, C[C@]12CC[C@@H]3c4ccc(O)cc4C[C@@H](CCCCCCCCC[S+]([O-])CCCC(F)(F)C(F)(F)F)[C@H]3[C@@H]1CC[C@@H]2O (some centres undefined) [Fulvestrant] (1000 nM) ?
stdout: 74.9

stdin: Now the same for CN(N=O)C(=O)N[C@@H](C=O)[C@@H](O)[C@H](O)[C@H](O)CO [Streptozocin] (100 nM)
stdout: 107

stdin: Now give it for COc1cc([C@@H]2c3cc4c(cc3[C@@H](O[C@@H]3O[C@@H]5CO[C@@H](C)O[C@H]5[C@H](O)[C@H]3O)[C@H]3COC(=O)[C@H]23)OCO4)cc(OC)c1O [Etoposide] (100 nM) too.
stdout: 95.2

stdin: Moving on to Cn1c(Nc2ccc(C(F)(F)F)cc2)nc2cc(Oc3ccnc(-c4ncc(C(F)(F)F)[nH]4)c3)ccc21 [RAF265] (100 nM)
stdout: 86.3

----------
Measured normalised response accompanies every entry in the list below.
- System: CAL-85-1
- TEST SUMMARY: normalised response (% of control), CellTiter-Glo; higher = more viable cells (100 = DMSO, 0 = benzethonium chloride kill control)
- PARTICULARS: incubation time: 72 h
Express the result in % but write the number alone.

1. Cc1ccc(C(=O)Nc2ccc(CN3CCN(C)CC3)c(C(F)(F)F)c2)cc1C#Cc1cnc2cccnn12 [Ponatinib] (100 nM) = 105
2. Oc1nc(-c2ccc(C(F)(F)F)cc2)nc2c1CSCC2 [XAV-939] (1000 nM) = 105
3. Cn1c(CCCC(=O)O)nc2cc(N(CCCl)CCCl)ccc21 [Bendamustine] (10 nM) = 102

stdin: Field: normalised response (CAL-85-1). Entry: CNCc1ccc(-c2[nH]c3cc(F)cc4c3c2CCNC4=O)cc1 [Rucaparib] (10 nM)
stdout: 98.9

stdin: What about this molecule? CS(=O)(=O)c1ccc(C2=C(c3ccccc3)C(=O)OC2)cc1 [Rofecoxib] (1000 nM)
stdout: 103

stdin: Next up: CN(N=O)C(=O)N[C@@H](C=O)[C@@H](O)[C@H](O)[C@H](O)CO [Streptozocin] (10 nM)
stdout: 98.9

stdin: Can you handle CCC1(c2ccc(N)cc2)CCC(=O)NC1=O (stereo not drawn) [Aminoglutethimide] (10 nM) next?
stdout: 105

stdin: Same thing, different molecule: CN(N=O)C(=O)N[C@@H](C=O)[C@@H](O)[C@H](O)[C@H](O)CO [Streptozocin] (1000 nM)
stdout: 104

----------
- Tested on: MFM-223
- TEST SUMMARY: normalised response (% of control), CellTiter-Glo; higher = more viable cells (100 = DMSO, 0 = benzethonium chloride kill control)
- PARTICULARS: incubation time: 72 h
Catalogue of molecules with associated normalised response
Just the number please, in %, no unit attached.

Consider the reported normalised response for these molecules:
1. O=C(O)c1ccc(-c2c[nH]c3ncc(-c4ccccc4)cc23)cc1C1CCCC1 (10 nM) = 94
2. O=C1CCC(N2C(=O)c3ccccc3C2=O)C(=O)N1 (stereo not given) [Thalidomide] (1000 nM) = 93.8
3. N#CCNC(=O)c1ccc(-c2ccnc(Nc3ccc(N4CCOCC4)cc3)n2)cc1 [Momelotinib] (1000 nM) = 93.4
4. N.N.[Cl][Pt][Cl] [Cisplatin] (0.1 nM) = 96.9

Query molecule follows.
stdin: # value lookup — system MFM-223, readout normalised response, item Cc1ccc(C(=O)N(CCCN)[C@@H](c2oc3cc(Cl)ccc3c(=O)c2Cc2ccccc2)C(C)C)cc1 (0.1 nM)
stdout: 93.2

----------
drug sensitivity score values by entry
- Tested on: HCC1937
- TEST SUMMARY: drug sensitivity score (DSS), CellTiter-Glo (DSS (AUC-based score)); higher = stronger drug effect (viability inhibition or cytotoxicity); extreme values may be limits of the assay
- PARTICULARS: incubation time: 72 h

Some molecules with known drug sensitivity score results, for comparison:
1) COc1cc2ncnc(Nc3ccc(F)c(Cl)c3)c2cc1NC(=O)/C=C/CN1CCCCC1 = 0
2) Cn1c(Nc2ccc(C(F)(F)F)cc2)nc2cc(Oc3ccnc(-c4ncc(C(F)(F)F)[nH]4)c3)ccc21 = 1.88

stdin: Which value of drug sensitivity score has been reported for NC(=O)Nc1cc(-c2cccc(F)c2)sc1C(=O)N[C@H]1CCCNC1 in the records?
stdout: 2.78

----------
- System: MDA-MB-453
- TEST SUMMARY: normalised viability (% of control), CellTiter-Blue; higher = more viable cells (about 100 = DMSO control)
- PARTICULARS: 30 nM; incubation time: 72 h
Item-by-item account of normalised viability
The reply should contain only the number, in %.

See these solved cases before continuing.
1. CNCc1ccc(-c2[nH]c3cc(F)cc4c3c2CCNC4=O)cc1 = 89.3
2. CN(N=O)C(=O)N[C@@H](C=O)[C@@H](O)[C@H](O)[C@H](O)CO = 89.4
3. N.N.[Cl][Pt][Cl] [Cisplatin] = 117
4. O=C1CCC(N2C(=O)c3ccccc3C2=O)C(=O)N1 (stereo not given) [Thalidomide] = 99.3

Please look at the following molecule next.
stdin: Could you tell me which normalised viability is on file for CC(C)Cn1cnc2c(N)nc3ccccc3c21 ?
stdout: 105
